target: Recombinant human PDE4B (Homo sapiens (Human), UniProt Q07343); experiment: Inhibitory activity against PDE 4B in vitro (fluorescence polarization, Transcreener AMP2/GMP2); format: biochemical; conditions: 1 μM cAMP
Sequence (Q07343 305-736 limits assumed): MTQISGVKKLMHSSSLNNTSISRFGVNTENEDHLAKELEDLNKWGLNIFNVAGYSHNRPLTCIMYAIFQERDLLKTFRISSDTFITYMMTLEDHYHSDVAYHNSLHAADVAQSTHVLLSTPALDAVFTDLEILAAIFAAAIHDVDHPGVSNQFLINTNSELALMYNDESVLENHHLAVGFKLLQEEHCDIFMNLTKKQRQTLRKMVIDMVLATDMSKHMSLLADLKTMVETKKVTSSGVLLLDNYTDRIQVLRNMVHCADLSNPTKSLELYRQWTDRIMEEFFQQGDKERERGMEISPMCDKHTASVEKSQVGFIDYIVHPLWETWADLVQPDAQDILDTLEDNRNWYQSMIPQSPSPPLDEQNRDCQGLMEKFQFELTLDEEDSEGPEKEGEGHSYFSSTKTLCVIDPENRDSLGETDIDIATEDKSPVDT
QUANTITY: IC50 (nM)

Some entries whose results are on file:
CCOc1cc(C(CS(C)(=O)=O)n2c(=O)[nH]c3c(C)c(C)cnc32)ccc1OC(F)F (centres unmarked)
5.39
CCOc1cc([C@@H](CS(C)(=O)=O)n2c(=O)[nH]c3cc(-n4ccccc4=O)cnc32)ccc1OC
26.1
CCOc1cc([C@@H](CS(C)(=O)=O)n2c(=O)[nH]c3c(C)c(-c4ccccc4F)cnc32)ccc1OC
0.685
CCOc1cc([C@@H](CS(C)(=O)=O)n2c(=O)n(CCS(C)(=O)=O)c3cc(Br)cnc32)ccc1OC
8.2

P = CCOc1cc([C@@H](CS(C)(=O)=O)n2c(=O)n(CCOC)c3cc(Br)cnc32)ccc1OC
Q = CCOc1cc([C@@H](CS(C)(=O)=O)n2c(=O)[nH]c3cc(-c4ccccc4F)cnc32)ccc1OC
R = CCOc1cc([C@@H](CS(C)(=O)=O)n2c(=O)[nH]c3cc(-c4cccc(F)c4)cnc32)ccc1OC
S = CCOc1cc([C@@H](CS(C)(=O)=O)n2c(=O)n(CC)c3cc(-c4ccccc4F)cnc32)ccc1OC
Task field, ranking: reported IC50, descending order. Could you list the labels in the order requested?
P, R, S, Q
